Hello, the source for this data is patent US20200171163A1, in case you need it.

Reported Kd by item:
# System under test: T1, Recombinant Human CDH6 Fc His chimera (R&D Systems, Inc.) (human, UniProt P55285 54-615)
# T1 construct: Bought product; also called the antigen; human CDH6 antigen
# T1 sequence: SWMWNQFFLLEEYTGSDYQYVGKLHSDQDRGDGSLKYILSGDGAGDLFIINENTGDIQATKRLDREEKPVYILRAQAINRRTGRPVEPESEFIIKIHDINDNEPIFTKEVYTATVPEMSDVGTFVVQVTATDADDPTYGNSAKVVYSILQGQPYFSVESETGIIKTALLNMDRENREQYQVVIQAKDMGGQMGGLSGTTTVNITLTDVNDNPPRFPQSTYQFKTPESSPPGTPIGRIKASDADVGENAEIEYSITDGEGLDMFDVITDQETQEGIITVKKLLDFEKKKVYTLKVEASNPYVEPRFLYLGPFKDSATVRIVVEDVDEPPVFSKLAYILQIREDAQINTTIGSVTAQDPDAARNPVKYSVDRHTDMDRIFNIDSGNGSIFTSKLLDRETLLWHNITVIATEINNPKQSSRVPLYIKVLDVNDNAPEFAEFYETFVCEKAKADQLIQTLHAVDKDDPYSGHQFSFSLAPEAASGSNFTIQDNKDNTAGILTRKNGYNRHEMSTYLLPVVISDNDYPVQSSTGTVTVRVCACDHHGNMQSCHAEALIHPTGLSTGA
# Protocol notes: SPR (Biacore T200), antigen captured by anti-His antibody, antibody as analyte, steady state affinity model
Record the value in nM, omitting the unit from your answer.

H02L02 antibody (antibody, human IgG1, kappa, V domains shown, Humanized IgG1/kappa (hH02 + hL02); also called humanized hG019 antibody H02L02) VH: EVQLVQSGAEVKKPGASVKVSCKASGYTFTRNFMHWVRQAPGQGLEWMGWIYPGDGETEYNQKFQGRVTITADRSTSTAYMELSSLRSEDTAVYFCARGVYGGFAGGYFDFWGQGTLVTVSS VL: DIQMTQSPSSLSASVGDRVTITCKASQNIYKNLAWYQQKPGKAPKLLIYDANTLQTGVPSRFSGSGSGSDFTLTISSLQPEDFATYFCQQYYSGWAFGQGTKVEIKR
1.1

Prompt: Write down Kd measured for item H04L02 antibody (antibody, human IgG1, kappa, V domains shown, Humanized IgG1/kappa (hH04 + hL02); also called humanized hG019 antibody H04L02) VH: QVQLVQSGAEVKKPGASVKVSCKASGYTFTRNFMHWIRQAPGQGLEWMGWIYPGDGETEYAQKFQGRVTLTADRSTSTAYMELSSLRSEDTAVYYCARGVYGGFAGGYFDFWGQGTLVTVSS VL: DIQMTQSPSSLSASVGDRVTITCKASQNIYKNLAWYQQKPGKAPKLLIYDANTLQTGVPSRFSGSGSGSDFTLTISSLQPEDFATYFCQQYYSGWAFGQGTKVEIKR
Response: 1.1

Prompt: Write down Kd measured for item H01L02 antibody (antibody, human IgG1, kappa, V domains shown, Humanized IgG1/kappa (hH01 + hL02); also called humanized hG019 antibody H01L02; labeled H01L02) VH: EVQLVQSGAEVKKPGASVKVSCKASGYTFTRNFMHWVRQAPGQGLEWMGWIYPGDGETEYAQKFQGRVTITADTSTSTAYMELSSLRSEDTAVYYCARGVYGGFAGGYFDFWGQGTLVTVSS VL: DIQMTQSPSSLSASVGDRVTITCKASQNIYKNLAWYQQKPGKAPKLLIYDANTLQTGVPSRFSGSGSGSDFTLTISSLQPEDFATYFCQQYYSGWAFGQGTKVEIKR
Response: 1.5

Prompt: Write down Kd measured for item H02L03 antibody (antibody, human IgG1, kappa, V domains shown, Humanized IgG1/kappa (hH02 + hL03); also called humanized hG019 antibody H02L03) VH: EVQLVQSGAEVKKPGASVKVSCKASGYTFTRNFMHWVRQAPGQGLEWMGWIYPGDGETEYNQKFQGRVTITADRSTSTAYMELSSLRSEDTAVYFCARGVYGGFAGGYFDFWGQGTLVTVSS VL: DIQMTQSPSSLSASVGDRVTITCKASQNIYKNLAWYQQKLGEGPKLLIYDANTLQTGVPSRFSGSGSGTDFTLTISSLQPEDFATYYCQQYYSGWAFGQGTKVEIKR
Response: 1.4
